Reference for the values: PubChem BioAssay AID1963865

- Tested on: KRAS PDC multicell spheroid viability;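 also: spheroids exposed to compounds for 7 days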
- experiment: Anticancer human tumor 825966-067-R-J1-PDC patient-derived colon carcinoma cell line growth inhibition [KRAS2]; active = viability on the fitted dose curve at most 10% of control; inactive = the rest
- condition summary: second compound 10 µM; first compound 0.316 µM
Hi! Could you answer with just one of these? active, inactive

Worked examples follow.
compound	class assignment
Cn1nccc1Nc1nccc(-c2cc3c(s2)C(C)(C)N(CCN2CCOCC2)C3=O)n1 + C=CC(=O)N1CCN(c2nc(=O)n(-c3c(C)ccnc3C(C)C)c3nc(-c4c(O)cccc4F)c(F)cc23)C(C)C1	inactive
COc1cc2nccc(Oc3ccc(NC(=O)C4(C(=O)Nc5ccc(F)cc5)CC4)cc3)c2cc1OC + C=CC(=O)N1CCN(c2nc(=O)n(-c3c(C)ccnc3C(C)C)c3nc(-c4c(O)cccc4F)c(F)cc23)C(C)C1	inactive
CC1(C)CCC(CN2CCN(c3ccc(C(=O)NS(=O)(=O)c4ccc(NCC5CCOCC5)c([N+](=O)[O-])c4)c(Oc4cnc5[nH]ccc5c4)c3)CC2)=C(c2ccc(Cl)cc2)C1 + C=CC(=O)N1CCN(c2nc(=O)n(-c3c(C)ccnc3C(C)C)c3nc(-c4c(O)cccc4F)c(F)cc23)C(C)C1	inactive
O=C(c1cc(Cc2n[nH]c(=O)c3ccccc23)ccc1F)N1CCN(C(=O)C2CC2)CC1 + CNCc1ccccc1-c1csc(C(C)Nc2nc(C)nc3cc(OC)c(OC)cc23)c1	active

Ask | Given COc1cc2nccc(Oc3ccc(NC(=O)C4(C(=O)Nc5ccc(F)cc5)CC4)cc3)c2cc1OC + CC1OCC2(CCN(c3cnc(Sc4ccnc(N)c4Cl)c(N)n3)CC2)C1N , state the outcome it received in this test.
Reply | inactive
